Target: human mGluR5a receptor (Homo sapiens, UniProt P41594)
Construct: cDNA subcloned into pcDNA3.1(-)
Sequence (P41594 21-1180 isoform P41594-2 limits assumed): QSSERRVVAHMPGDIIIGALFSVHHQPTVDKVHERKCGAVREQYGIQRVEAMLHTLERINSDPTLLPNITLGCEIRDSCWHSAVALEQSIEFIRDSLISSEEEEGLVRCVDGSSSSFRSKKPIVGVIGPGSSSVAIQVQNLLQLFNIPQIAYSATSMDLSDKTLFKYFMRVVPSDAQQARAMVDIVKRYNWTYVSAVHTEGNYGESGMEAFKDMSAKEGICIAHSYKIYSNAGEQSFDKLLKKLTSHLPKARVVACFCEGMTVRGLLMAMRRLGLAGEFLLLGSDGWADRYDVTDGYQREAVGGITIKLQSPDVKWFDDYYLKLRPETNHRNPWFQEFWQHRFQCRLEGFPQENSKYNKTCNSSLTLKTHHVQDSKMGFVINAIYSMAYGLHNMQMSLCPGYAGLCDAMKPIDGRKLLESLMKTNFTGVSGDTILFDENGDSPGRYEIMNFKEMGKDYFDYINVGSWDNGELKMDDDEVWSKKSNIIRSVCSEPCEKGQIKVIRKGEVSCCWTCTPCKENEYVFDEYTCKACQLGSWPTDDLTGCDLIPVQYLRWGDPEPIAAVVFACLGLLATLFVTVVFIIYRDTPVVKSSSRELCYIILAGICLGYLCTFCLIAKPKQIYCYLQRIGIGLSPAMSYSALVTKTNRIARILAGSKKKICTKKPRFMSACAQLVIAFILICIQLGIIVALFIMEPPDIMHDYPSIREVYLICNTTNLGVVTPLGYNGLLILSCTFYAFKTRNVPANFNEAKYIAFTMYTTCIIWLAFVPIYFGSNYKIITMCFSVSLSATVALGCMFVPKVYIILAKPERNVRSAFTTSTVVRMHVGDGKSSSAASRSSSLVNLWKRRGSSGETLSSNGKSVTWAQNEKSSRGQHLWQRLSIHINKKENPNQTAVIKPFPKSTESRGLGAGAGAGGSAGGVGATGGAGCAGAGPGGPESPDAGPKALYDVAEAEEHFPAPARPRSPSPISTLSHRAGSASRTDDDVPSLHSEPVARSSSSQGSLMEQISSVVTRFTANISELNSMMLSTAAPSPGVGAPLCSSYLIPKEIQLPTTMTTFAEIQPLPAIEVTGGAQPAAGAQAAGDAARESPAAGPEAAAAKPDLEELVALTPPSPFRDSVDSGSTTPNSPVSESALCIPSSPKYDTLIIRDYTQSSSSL
Test: Cell-based functional Ca2+ mobilization assay (FDSS), potentiation of glutamate EC20 response
Details: HEK cells transfected with human mGluR5 (H10H or H12H); in presence of EC20 glutamate; read-out: EC50
pEC50: −log10 of the molar value.
Listed below: pEC50 values for each entry.

These solved cases illustrate the format of a correct answer.
O=C1c2cc(COc3ccc(F)cn3)nn2CCN1c1ccc(F)cc1 [Example 181] | < 5.00
Cc1ccnc(OCc2cc3n(n2)CCN(c2ccc(F)cc2)C3=O)n1 [Example 186] | < 4.52
COc1ccnc(OCc2cc3n(n2)CCN(c2ccc(F)cc2)C3=O)c1 [Example 195] | < 5.00
Cc1cc(OCc2cc3n(n2)CCN(c2ccc(F)cc2)C3=O)cc(C)n1 [Example 175] | < 4.52
Cc1cccnc1OCc1cc2n(n1)CCN(c1ccc(F)cc1)C2=O [Example 185] | < 5.00
CN(C)c1cccc(OCc2cc3n(n2)CCN(c2ccc(F)cc2)C3=O)n1 [Example 310] | < 4.52
COc1cnnc(N2CCn3nc(COc4ccccc4)cc3C2=O)c1 [Example 125] | < 5.00
O=C1c2cc(COc3ccccc3)nn2CCN1c1ccncn1 [Example 80] | 5.89
Cc1cc(N2CCn3nc(COc4ccc(F)cc4)cc3C2=O)ccc1F [Example 225] | 7.21
COc1cc(N2CCn3nc(COc4ccccc4)cc3C2=O)nnc1Cl [Example 296] | 6.21

Query string: What reported pEC50 corresponds to O=C1c2cc(COc3ccccc3)nn2CCN1c1ncccn1 [Example 77] on human mGluR5a receptor (Homo sapiens, UniProt P41594)?
Result string: < 5.00

Query string: Now this one: COc1cc(C)cc(N2CCn3nc(COc4ccccc4)cc3C2=O)n1 [Example 104]
Result string: 7.27

Query string: Now this one: Cc1cc(N2CCn3nc(COc4ccccn4)cc3C2=O)ccc1F [Example 203]
Result string: 6.78

Query string: Now this one: O=C1c2cc(COc3ccccc3O)nn2CCN1c1ccc(F)cn1 [Example 377]
Result string: < 5.00

These data points were gathered from patent US8592422B2.
